Test system: Pseudomonas aeruginosa
Test: Ratio of Ampicillin MIC to compound MIC for Pseudomonas aeruginosa ATCC 10145
Type: functional
Quick reference for Ratio among some molecules

smilesRepresentation: COc1ccc(/C=N/N=c2\scc(-c3cc(O)ccc3O)n2-c2ccc(C)cc2)cc1O
Ratio: 2

smilesRepresentation: COc1ccc(/C=N/N=c2\scc(-c3cc(O)ccc3O)n2-c2ccccc2)cc1O
Ratio: 4

smilesRepresentation: COc1ccc(OC)c(/C=N/N=c2\scc(-c3cc(O)ccc3O)n2-c2ccc(C)cc2)c1
Ratio: 2

smilesRepresentation: COc1ccc(/C=N/N=c2\scc(C3=CC(=O)C=CC3=O)n2-c2ccc(C)cc2)cc1
Ratio: 4
